Source of measurements: paper PMC9834408

- tgt: T1, SHARP SPOC (3496–3664 aa) (human, UniProt Q96T58 3496-3664)
- T1 construct: SPOC domain of human SHARP (SMRT/HDAC1 associated repressor protein, also known as SPEN), residues 3496-3664; also called SPOC domain of SHARP; SPEN SPOC; not shown: His6, N-terminal, cleaved
- test_name: fluorescence polarisation; fluorescence anisotropy; 90 nM labelled peptide (Atto-488 on CTD peptides, FAM on NCoR and FMR1 peptides) titrated with increasing concentrations of SPOC domain; 20 °C; 25 mM Tris-Cl pH 7.4, 25 mM NaCl, 1 mM DTT; three independent dilution series
- condition_set: both partners purified
Where no end group is shown, it is not given here. [ ]: non-standard residue; d: D form. FAM = FAM fluorescent label on the peptide N-terminus (the text does not expand the abbreviation); pS = N[C@@H](COP(=O)(O)O)C(=O)O
observable: Kd (µM)
Answers are plain numbers, in µM.

[
  {
    "binder": "{FAM}-REPAPLLSAQYETLSDSDD [unphosphorylated NCoR peptide]",
    "unit_text": "µM",
    "Kd": 13.6
  },
  {
    "binder": "{FAM}-REPAPLLSAQYETL[pS]DSDD (also: phosphoserine at S2436) [NCoR peptide phosphorylated at S2436]",
    "unit_text": "µM",
    "Kd": 1.75
  }
]

// switching to the query binder
Incoming: // Kd lookup, key: {Atto‑488}-YSPT[pS]PSYSPTSPS (also called 1×S5P CTD peptide; CTD pS5; source: lyophilized peptide, labeled with Atto-488 NHS ester, purified by reverse-phase HPLC) [1×S5P CTD diheptapeptide]
Outgoing: 23.8
